// provenance: PubChem BioAssay

Recorded z-score values for a group of molecules are listed next.
- TEST DESCRIPTION: HepG2 liver cancer cell viability effects, profiling panel, resazurin fluorescence, 24 h, PK04 Diversity Set (AID 1172); note: test concentration not given here
- TEST CONDITIONS: higher = more signal
Answer with a bare number; do not write a unit.

- SMILES REPR: "COC(=O)[C@@]1(Cc2ccc(OC)cc2)[C@H]2c3cc(C(=O)N4CCCC4)n(Cc4cc(F)cc5c4OCOC5)c3C[C@H]2CN1C(=O)c1ccccc1"
  PROPERTY NAME: "z-score"
  RESULT: -1.47

Q) Record request: z-score value, item COCCOC(=O)N1C(=O)[C@@]2(c3cc(C#Cc4ccc(OC)cc4)ccc31)[C@H](C(=O)N1CCN(c3ncccn3)CC1)[C@H]1C(=O)O[C@H](c3ccccc3)[C@H](c3ccccc3)N1[C@@H]2c1ccc(O)cc1
A) -0.221

Q) Param item = COCCOC(=O)N1C(=O)[C@@]2(c3cc(C#CCC(C(=O)OC)C(=O)OC)ccc31)[C@H](c1ccccc1OCCO)N1[C@H](c3ccccc3)[C@H](c3ccccc3)OC(=O)[C@H]1[C@@H]2C(N)=O ; retrieve measured z-score.
A) -0.592

Q) Could you tell me which z-score is on file for COc1ccc(C(=O)Nc2cccc(CN3C(=O)[C@]4(O[C@H](CC(=O)N5CCC[C@H]5CO)[C@@H]([Si](C)(C)c5ccc(OC)cc5)[C@@H]4C)c4ccccc43)c2)cc1 ?
A) -1.72

Q) Please look up its z-score: COc1cc(CO)ccc1OC(C)=O
A) -0.386

Q) Requested read-out: z-score. Entry: CCOC(=O)C1=C[C@@H](CC)N(S(=O)(=O)c2ccc(C)cc2)[C@H]1c1ccccc1
A) -0.203
